Hello, the source for this data is patent US20220088180A1, in case you need it.

Would you kindly list pIC50 for each of these binders?
- assayed.target: HLA-B*44:03 (human)
- assay.protocol: radioligand competition, purified MHC
- stated.conditions: remark: other sources report otherwise
pIC50: −log10 of the molar value.

# binder, pIC50
measured = [
    ("KRVDWTIEY (modifications not checked) [… (SEQ ID NO: 29)]", "< 4.15"),
]

Could you now look at the following binder, please?
Prompt line: // fetch pIC50 given entry FGDDTVIEV (modifications not checked) [… (SEQ ID NO: 23)]
Response line: < 4.15
